System: MDA-N
Assay: NCI tumour cell line growth inhibition, 48 h
Active and inactive are the calls of the source. No stated cut-off is given here; in the data, active = GI50 up to about 1.1 µM and inactive = higher. Positions of bridges follow the written chain, without caps; N, C: chain ends. Where a SMILES comes first, the peptide text is derived from it. Non-standard residues stand in square brackets, D forms with d. Residues, ends and D or L forms follow the SMILES beside them. The star is where a group is joined. Boc = CC(C)(C)OC(=O)*; Aib = CC(C)(N)C(=O)O; βAla = NCCC(=O)O
Lab note: assign the record to one of active, inactive

Solved cases below.
>>> label_value("O=c1c2ccccc2c2c1c1c3ccccc3c(=O)c1c1c3ccccc3c(=O)c21")
"inactive"
>>> label_value("C=CCc1cccc2cc(C(=O)NCc3ccccc3)c(=N)oc12")
"inactive"
>>> label_value("COc1ccc(CC2NC(=O)/C=C/CC(C(C)C3OC3c3ccccc3)OC(=O)C(CC(C)C)OC(=O)C(C)CNC2=O)cc1Cl (centres undefined)")
"active"
>>> label_value("C=C(C)[C@@H]1CC[C@]2(C(=O)O)CC[C@]3(C)[C@H](CC[C@@H]4[C@@]5(C)CC(=O)C(C)(C)[C@@H]5CC[C@]43C)[C@@H]12")
"inactive"

Recorded test call requested for CCCCCCCCCc1c(Cl)nc(Cl)nc1Cl
inactive

Recorded test call requested for C=C1CC/C=C(\C)CCC[C@H](C)[C@@H](O)[C@@H]2OC(=O)C(=C)[C@@H]2C[C@H]1O
inactive

Recorded test call requested for COC(=O)C(Cc1c[nH]c2ccccc12)NC(=O)C(Cc1c[nH]c2ccccc12)NC(=O)C(Cc1c[nH]c2ccccc12)NC(=O)C(Cc1c[nH]c2ccccc12)NC(=O)C(Cc1c[nH]c2ccccc12)NC(=O)C(Cc1c[nH]c2ccccc12)NC(=O)C(Cc1c[nH]c2ccccc12)NC(=O)OC(C)(C)C (centres undefined) (Boc-WWWWWWW-OMe; configuration not given here)
inactive

Recorded test call requested for CC(C)(C)OC(=O)NC(Cc1ccc(OCc2ccccc2)cn1)C(N)=O (centres undefined)
inactive

Recorded test call requested for CC1(C)NC(=O)C(NC(=O)C(N)CC(=O)O)CCCCNC(=O)CCNC1=O (centres undefined) (H-DK[Aib][βAla]; lactam 2-C; configuration not given here)
inactive

###

# GI50 values compiled below
System: OVCAR-5
Test: NCI tumour cell line growth inhibition, 48 h
The source made the active and inactive calls. No stated cut-off is given here; in the data, active = GI50 up to about 1.1 µM and inactive = higher.

Example entries and their recorded answers appear below.
>>> recorded_measurement("O=c1[nH]c(=O)n(C2CC(O)C(CO)O2)cc1Oc1ccccc1 (stereo unspecified)")
"> 100 µM (inactive)"
>>> recorded_measurement("O=C(CCN1CCN(c2cccc(Cl)c2)CC1)N1CCc2c([nH]c3ccccc23)C1c1cccnc1 (stereo unspecified)")
"4.72 µM (inactive)"
>>> recorded_measurement("O=C1CC(C[C@H](O)C2CCCCC2O)CC(=O)N1Cc1ccccc1 (stereo partly specified)")
"> 100 µM (inactive)"
>>> recorded_measurement("COC(=O)CCC1(NS(=O)(=O)c2ccc(C)cc2)CCC(C(C)(C)C)CC1 (stereo unspecified)")
"16.3 µM (inactive)"
>>> recorded_measurement("c1ccc(C2CC(c3ccc4ccccc4c3)=Nc3ccccc3S2)cc1 (stereo unspecified)")
"21.8 µM (inactive)"

Tell me the measured GI50 of CN(C)c1c(Cl)c(=O)oc2c1ccc1nc(-c3ccccc3)sc12 , please.
> 100 µM (inactive)

Tell me the measured GI50 of COc1cc(C2C(Cl)C(=O)N2n2cnc3ccccc3c2=O)cc(OC)c1OC (stereo unspecified) , please.
> 100 µM (inactive)

Tell me the measured GI50 of COC(=O)C(CCSC)NC(=O)CNC(=O)CSc1nnc(COc2ccc(Cl)cc2)n1-c1ccccc1 (stereo unspecified) , please.
19 µM (inactive)

Tell me the measured GI50 of C/C=C/CC(C)[C@@H](O)[C@H](NC)C(=O)O (stereo partly specified) , please.
> 100 µM (inactive)

Tell me the measured GI50 of CCOC(=O)c1nc2c3c(ncn2n1)Oc1c(c(-c2ccccc2)nn1-c1ccccc1)C3c1ccc(OC)c(OC)c1 (stereo unspecified) , please.
> 100 µM (inactive)

Tell me the measured GI50 of N#CC(c1nc2ccccc2s1)c1ncnc(Cl)c1[N+](=O)[O-] (stereo unspecified) , please.
24.3 µM (inactive)

###

System: UACC-257
Assay: NCI tumour cell line growth inhibition, 48 h
Activity calls are given as the source filed them. Cut-off read from the data, not from the text of the source: active = GI50 up to about 1.1 µM and inactive = higher.
Lab note: assign the record to one of active, inactive

Solved cases below.
>>> label_value("CCN(CC)CCC(=O)c1ccccc1")
"inactive"
>>> label_value("c1csc(-c2ccsc2-c2cccs2)c1")
"inactive"
>>> label_value("CC(C)(C)c1c2c(c(C(C)(C)C)c3c1OCN(Cc1ccccc1)C3)OCN(Cc1ccccc1)C2")
"inactive"
>>> label_value("NC(=O)N=C(NCc1ccccc1)NCc1ccccc1")
"inactive"
>>> label_value("COc1cc(C2c3cc4c(cc3OC(C)(N3CCCC3)C2C)OCO4)cc(OC)c1OC (centres undefined)")
"active"
>>> label_value("CC(=O)NC(=N/N=C1/C(=O)Nc2ccc(C)cc21)NC(C)=O")
"inactive"

Recorded test call requested for O=C(Nc1cc(Cl)c(I)c(Cl)c1)C(F)(F)F
inactive

Recorded test call requested for CCOC(=O)CCC(NC(=O)c1ccc(Nc2nc3ccccc3nc2C(=O)OCC)cc1)C(=O)OCC (centres undefined)
inactive

Recorded test call requested for COc1ccc(/C=C(/C#N)C(N)=O)c(OC)c1
inactive

###

Tested on: SF-539
Assay: NCI tumour cell line growth inhibition, 48 h
The source made the active and inactive calls. Cut-off read from the data, not from the text of the source: active = GI50 up to about 1.1 µM and inactive = higher.
Lab note: assign the record to one of active, inactive

Recorded test call requested for CC[C@H](C)[C@H]1NC(=O)[C@@H](NC(=O)[C@@H](CC(C)C)N(C)C(=O)C2CCCN2C(=O)[C@H](C)O)[C@@H](C)OC(=O)[C@H](Cc2ccccc2)N(C)C(=O)[C@@H]2CCCN2C(=O)[C@H](CC(C)C)NC(=O)[C@@H](C)C(=O)[C@H](C(C)C)OC(=O)C[C@@H]1O (stereo not given in full)
active

Recorded test call requested for C#CC[C@]12CC(=O)CC[C@H]1CC1(C2)OCCO1
inactive

Recorded test call requested for CC1(C)C=C(/C=N/Nc2ccccc2)C(C#N)=C(O)C1(C#N)C#N
inactive

Recorded test call requested for CN(C)c1c(Cl)c(=O)oc2c1ccc1nc(-c3ccccc3)sc12
inactive

Recorded test call requested for c1csc(-c2ccsc2-c2cccs2)c1
inactive

###

# GI50 values compiled below
Tested on: MOLT-4
Assay: NCI tumour cell line growth inhibition, 48 h
Calls of active or inactive are those of the source. Rule as the data show it: active = GI50 up to about 1.1 µM and inactive = higher.

>>> recorded_measurement("CCOP(=O)(Nc1ccc(-c2ccccc2)cc1)OCC")
"36.4 µM (inactive)"

Tell me the measured GI50 of CC(=O)NC(=N/N=C1/C(=O)Nc2ccc(C)cc21)NC(C)=O , please.
> 100 µM (inactive)

Tell me the measured GI50 of Cc1cccc(NC(=S)Nc2ccc(Cl)cc2)n1 , please.
> 100 µM (inactive)

Tell me the measured GI50 of C[N+]1(C)C/C(=C\c2ccccc2)C(=O)/C(=C/c2ccccc2)C1 , please.
32.8 µM (inactive)

Tell me the measured GI50 of N#C/C(=C1\SC(/N=N/c2ccccc2)C(=O)N1c1ccccc1)c1nc2ccccc2[nH]1 (configuration not stated) , please.
26.1 µM (inactive)

Tell me the measured GI50 of COc1c2cc(C(C)(C)C)cc1Cc1cccc(c1OCc1cccc([N+](=O)[O-])c1)Cc1cc(C(C)(C)C)cc(c1OC)Cc1cccc(c1OCc1cccc([N+](=O)[O-])c1)Cc1cc(C(C)(C)C)cc(c1OC)Cc1cccc(c1OCc1cccc([N+](=O)[O-])c1)C2 , please.
> 50 µM (inactive)

Tell me the measured GI50 of CC(C)[Si](OCC/C=C/C1CCC(=O)C1C(O)C1CCCCC1)(C(C)C)C(C)C (configuration not stated) , please.
12.5 µM (inactive)

Tell me the measured GI50 of CCOC(=O)CCC(NC(=O)c1ccc(Nc2nc3ccccc3nc2C(=O)OCC)cc1)C(=O)OCC (configuration not stated) , please.
> 100 µM (inactive)

Tell me the measured GI50 of O=C(Nc1cc(Cl)c(I)c(Cl)c1)C(F)(F)F , please.
26.5 µM (inactive)

Tell me the measured GI50 of Fc1ccc(F)c(C2SCc3nc4ccccc4n32)c1 (configuration not stated) , please.
27.2 µM (inactive)

Tell me the measured GI50 of CC(=O)OC1COC(n2nc(N)nc2C)C(OC(C)=O)C1OC(C)=O (configuration not stated) , please.
> 100 µM (inactive)

###

Tested on: M14
Assay: NCI tumour cell line growth inhibition, 48 h
Activity calls are given as the source filed them. No stated cut-off is given here; in the data, active = GI50 up to about 1.1 µM and inactive = higher.
# GI50 values compiled below

Record lookup: for M14, what GI50 belongs to COc1cc(C2c3cc4c(cc3OC(C)(N3CCCC3)C2C)OCO4)cc(OC)c1OC (stereo unspecified) ?
0.242 µM (active)

Record lookup: for M14, what GI50 belongs to CCOC(=O)C1=C(C)N(Cc2ccccc2)C(C)=C(C(=O)OCC)C1c1ccccc1O ?
33.7 µM (inactive)

Record lookup: for M14, what GI50 belongs to CN(C)CC[N+](C)(C)[BH2-]C(O)O ?
> 100 µM (inactive)

Record lookup: for M14, what GI50 belongs to O=C(O)c1oc2ccc([N+](=O)[O-])c3c2c1CCC3 ?
> 100 µM (inactive)

Record lookup: for M14, what GI50 belongs to CC(=O)O/C(C)=C\C(=O)O/N=C(\N)c1ccc(C)cc1 ?
28.4 µM (inactive)

Record lookup: for M14, what GI50 belongs to O=C1c2ccccc2C2(Br)C(=O)c3ccccc3C12 (stereo unspecified) ?
> 100 µM (inactive)

Record lookup: for M14, what GI50 belongs to CC(=O)N/C(=C\c1ccc(/C=C(\NC(C)=O)c2nc3cc(Cl)ccc3[nH]2)cc1)c1nc2ccccc2[nH]1 ?
> 100 µM (inactive)
